experimental_system: src (Homo sapiens, UniProt P12931)
Construct: purchased Onogene Science, Inc. PK02 and PK03
Sequence (P12931 whole entry, species assumed): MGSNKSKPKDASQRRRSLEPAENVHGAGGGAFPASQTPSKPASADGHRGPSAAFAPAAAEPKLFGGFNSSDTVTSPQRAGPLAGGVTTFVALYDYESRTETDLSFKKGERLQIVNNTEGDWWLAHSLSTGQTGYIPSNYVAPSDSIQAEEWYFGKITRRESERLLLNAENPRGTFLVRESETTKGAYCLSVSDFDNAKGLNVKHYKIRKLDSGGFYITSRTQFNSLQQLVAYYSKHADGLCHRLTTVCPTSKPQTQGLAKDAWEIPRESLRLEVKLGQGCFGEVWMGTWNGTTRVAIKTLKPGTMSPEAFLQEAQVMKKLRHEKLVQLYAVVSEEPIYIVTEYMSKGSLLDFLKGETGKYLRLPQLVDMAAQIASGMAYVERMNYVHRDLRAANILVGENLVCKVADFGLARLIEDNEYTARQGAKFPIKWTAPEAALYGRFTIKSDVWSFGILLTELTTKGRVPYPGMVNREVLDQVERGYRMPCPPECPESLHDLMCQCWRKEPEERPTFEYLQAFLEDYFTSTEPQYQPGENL
test: Protein Tyrosine Kinase Assay (src)
Type: biochemical
condition_info: Table 1
Method: Protein Tyrosine Kinase Assay (src) The Assay components are the following: 4 μL DMSO or DMSO/inhibitor
pIC50: −log10 of the molar value. Where a name gives a salt, the structure may show the parent alone.
readout: pIC50

molecule	sign	reported_measurement
NCC1CCn2cc(c3ccccc32)C2=C(C(=O)NC2=O)c2cn(c3ccccc23)CCO1 (stereo not drawn) [Example 4, trifluoroacetate salt]	=	4.43
O=C1NC(=O)C2=C1c1cn(c3ccccc13)CCCC(CN(Cc1ccccc1)Cc1ccccc1)CCn1cc2c2ccccc21 (stereo not drawn) [Example 35, trifluoroacetate salt]	<	4.00
O=C1NC(=O)C2=C1c1cn(c3ccccc13)CCC[C@@H](CN1CCCC1)CCn1cc2c2ccccc21 [Example 36r, hydrochloride salt]	=	4.21

* * *

experimental_system: UniProtKB P05771
Where a name gives a salt, the structure may show the parent alone.
readout: IC50

compound	experimental_system	reported_measurement
O=C(NCC1CCn2cc(c3ccccc32)C2=C(C(=O)NC2=O)c2cn(c3ccccc23)CCCO1)OCc1ccccc1 (stereo not shown) [Example 16]	UniProtKB P05771	3.2 µM
O=C1NC(=O)C2=C1c1cn(c3ccccc13)CCCC(CN(Cc1ccccc1)Cc1ccccc1)CCn1cc2c2ccccc21 (stereo not shown) [Example 35, trifluoroacetate salt]	UniProtKB P05771	3 µM
CN(C)CC1CCn2cc(c3ccccc32)C2=C(C(=O)NC2=O)c2cn(c3ccccc23)CC1 [Example 54, hydrochloride]	UniProtKB P05771	0.005 µM
O=C1NC(=O)C2=C1c1cn(c3ccccc13)CCO[C@H](CN1CCOCC1)CCn1cc2c2ccccc21 [Example 24s]	UniProtKB P05771	0.49 µM
O=C1NC(=O)C2=C1c1cn(c3ccccc13)CCCCCCCn1cc2c2ccccc21 [Example 42]	UniProtKB P05771	0.5 µM
O=C1NC(=O)C2=C1c1cn(c3ccccc13)CCOc1ccccc1Cn1cc2c2ccccc21 [Example 27, hydrochloride]	UniProtKB P05771	0.049 µM
O=C1NC(=O)C2=C1c1cn(c3ccccc13)CCOCC(CN1CCCC1)CCn1cc2c2ccccc21 (stereo not shown) [Example 7, hydrochloride salt]	UniProtKB P05771	0.15 µM

* * *

experimental_system: UniProt P05771
test: PKC Enzyme Assay, beta-2 isozyme
Format: biochemical
condition_info: Table 1
pIC50: −log10 of the molar value. Counter-ions that a name gives are not always drawn.
Threshold rule: pIC50 greater than or equal to 7 is 1.0; below that, 0.0.

compound	experimental_system	assigned_label
O=C1NC(=O)C2=C1c1cn(c3ccccc13)CCCCCn1cc2c2ccccc21	UniProt P05771	1.0
O=C1NC(=O)C2=C1c1cn(c3ccccc13)CCCOC(CN1CCCC1)CCn1cc2c2ccccc21 (centres unmarked)	UniProt P05771	0.0
O=C1NC(=O)C2=C1c1cn(c3ccccc13)CCO[C@H](CNCc1ccccc1)CCn1cc2c2ccccc21 [Example 18s]	UniProt P05771	0.0
O=C(NCC1CCn2cc(c3ccccc32)C2=C(C(=O)NC2=O)c2cn(c3ccccc23)CCCO1)OCc1ccccc1 (centres unmarked)	UniProt P05771	0.0
CN1CCN(C[C@@H]2CCn3cc(c4ccccc43)C3=C(C(=O)NC3=O)c3cn(c4ccccc34)CCO2)CC1 [Example 23s]	UniProt P05771	0.0
O=C1NC(=O)C2=C1c1cn(c3ccccc13)CCO[C@H](CNS(=O)(=O)c1ccccc1)CCn1cc2c2ccccc21 [Example 21s]	UniProt P05771	1.0
NCC1CCn2cc(c3ccccc32)C2=C(C(=O)NC2=O)c2cn(c3ccccc23)CCO1 (centres unmarked) [Example 4, trifluoroacetate salt]	UniProt P05771	1.0
CN(C)CC1CCn2cc(c3ccccc32)C2=C(C(=O)NC2=O)c2cn(c3ccccc23)CC1 [Example 54, hydrochloride]	UniProt P05771	1.0
O=C1NC(=O)C2=C1c1cn(c3ccccc13)CCC[C@@H](CN1CCCC1)CCn1cc2c2ccccc21 [Example 36r, hydrochloride salt]	UniProt P05771	1.0
O=C1NC(=O)C2=C1c1cn(c3ccccc13)CCCC(CN(Cc1ccccc1)Cc1ccccc1)CCn1cc2c2ccccc21 (centres unmarked) [Example 35, trifluoroacetate salt]	UniProt P05771	0.0
O=C1NC(=O)C2=C1c1cn(c3ccccc13)CCOc1ccccc1Cn1cc2c2ccccc21 [Example 27, hydrochloride]	UniProt P05771	1.0
CN(C)CC1CCn2cc(c3ccccc32)C2=C(C(=O)NC2=O)c2cn(c3ccccc23)CCOC1 (centres unmarked) [Example 8, hydrochloride salt]	UniProt P05771	1.0

This collection of values is drawn from patent US5696108A.
